test system: HEK-293T; experiment: Multiplex assay against HEK293T; format: toxicity, cell-based; details: human, 12 h, 10 µM, compound concentration 10 uM, replicate 2
Could you label it true if measured Population Mitochondria Different-Phenotype (%) is 10% or higher, and false otherwise?

Take a look at these entries with their results.
CCCCN(CC)c1nc(C)nc2c1c(C)cn2-c1c(C)cc(C)cc1C.Cl; true
CN(c1cc(C(F)(F)F)nc(OCCC(=O)O)n1)c1cccc2c1CCC2; true
CC[C@@]1(O)C(=O)OCc2c1cc1n(c2=O)Cc2cc3ccccc3nc2-1 [CAMPTOTHECIN]; true
CCCc1cc(C)[nH]c(=O)c1CNC(=O)c1cc(-c2ccc(N3CCN(C(C)C)CC3)nc2)cc2c1cnn2C(C)C; true
CCOc1ccn(-c2ccc(F)cc2)c(=O)c1C(=O)Nc1ccc(Oc2ccnc(N)c2Cl)c(F)c1 [BMS-777607]; false

Now take the following compound into account.
[ask] For this compound, is measured Population Mitochondria Different-Phenotype (%) 10% or higher? c1ccc(-c2oc3ncnc(NC[C@@H]4CCCO4)c3c2-c2ccccc2)cc1
[reply] true

----------
tested on: HEK-293T; test: Multiplex assay against HEK293T; type: toxicity, cell-based; conditions: human, 12 h, 1 µM, compound concentration 1 uM, replicate 1
Metric: Population Mitotic Cells (%)
Value and unit, in that order.

CC(C)C[C@H](NC(=O)[C@H](Cc1ccccc1)NC(=O)CNC(=O)CNC(=O)[C@@H](N)Cc1ccc(O)cc1)C(=O)O; 54%
CCCCN(CC)c1nc(C)nc2c1c(C)cn2-c1c(C)cc(C)cc1C.Cl; 50%
N#CCNC(=O)c1ccc(-c2ccnc(Nc3ccc(N4CCOCC4)cc3)n2)cc1; 64%

[ask] Need Population Mitotic Cells (%), item CC[C@H](Nc1ncnc2[nH]cnc12)c1nc2cccc(F)c2c(=O)n1-c1ccccc1
[reply] 77%

[ask] Need Population Mitotic Cells (%), item CC(C)c1cc(Nc2nc(N3CCC[C@H](N)C3)ncc2C(N)=O)cc(C(C)C)n1
[reply] 38%

[ask] Need Population Mitotic Cells (%), item CCCCCNC(=N)N/N=C/c1c[nH]c2ccc(OC)cc12.O=C(O)/C=C\C(=O)O [TEGASEROD MALEATE]
[reply] 54%

----------
tested on: HEK-293T; assay: Multiplex assay against HEK293T; type: toxicity, cell-based; details: human, 24 h, 10 µM, compound concentration 10 uM, replicate 1
Reported Population Normal (%) is given for each of the following molecules.
Record the value in %, omitting the unit from your answer.

[ask] Need Population Normal (%), item NC(=O)c1ccc2nc(-c3ccc(C4(N)CCC4)cc3)c(-c3ccccc3)n2n1 [BAY-1125976]
[reply] 88

----------
Reported Total Cell Count is given for each of the following compounds.
test system: HEK-293T; assay: Multiplex assay against HEK293T; format: toxicity, cell-based; conditions: human, 12 h, 1 µM, compound concentration 1 uM, replicate 2

CCCCCNC(=N)N/N=C/c1c[nH]c2ccc(OC)cc12.O=C(O)/C=C\C(=O)O [TEGASEROD MALEATE]; 204
CCCc1cc(C)[nH]c(=O)c1CNC(=O)c1cc(-c2ccc(N3CCN(C(C)C)CC3)nc2)cc2c1cnn2C(C)C; 200

Attention now turns to another entry.
[ask] Notebook: pull reported Total Cell Count for HEK-293T, entry CN1C(=O)[C@@H](NC(=O)c2cc3ccccc3[nH]2)N=C(c2ccccc2)c2ccccc21 [DEVAZEPIDE]
[reply] 205
